Consider the following variants and their measured enrichment ratio readings.
B1: PhoQ; a variant is named by its letters at X, in order, P23837 (parent)
chain: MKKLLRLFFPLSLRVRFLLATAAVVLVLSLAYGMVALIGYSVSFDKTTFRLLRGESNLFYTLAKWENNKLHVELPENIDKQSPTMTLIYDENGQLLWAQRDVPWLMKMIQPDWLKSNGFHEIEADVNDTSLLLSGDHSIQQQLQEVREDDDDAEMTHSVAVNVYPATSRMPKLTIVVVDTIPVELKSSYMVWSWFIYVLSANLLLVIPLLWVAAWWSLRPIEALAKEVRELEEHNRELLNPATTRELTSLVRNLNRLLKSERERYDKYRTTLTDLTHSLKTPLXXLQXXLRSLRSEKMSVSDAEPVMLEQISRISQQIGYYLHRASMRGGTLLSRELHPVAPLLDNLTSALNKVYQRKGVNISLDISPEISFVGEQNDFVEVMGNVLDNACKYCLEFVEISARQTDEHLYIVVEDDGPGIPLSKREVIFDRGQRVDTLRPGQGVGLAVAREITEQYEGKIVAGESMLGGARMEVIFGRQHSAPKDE

variants of: B1; assay: enrichment ratio after two sorts for PhoP signalling (ratio (wild type AVST 3.29)); higher = more functional; settings: with PhoP (E. coli)
The full ranking holds about 140,000 sequences; the median of “enrichment ratio after two sorts for PhoP signalling” is about 0, and the highest 2% start at about 11. Only a selection was taken, and the highest values are over-represented in it overall.

Worked cases, answers included:
{"Mutation Label": "TIKH", "enrichment ratio": "≤ 0.25"}
{"Mutation Label": "VWEW", "enrichment ratio": "≤ 0.25"}
{"Mutation Label": "HDSA", "enrichment ratio": "≤ 0.25"}
{"Mutation Label": "MGCV", "enrichment ratio": 14}

Give reported enrichment ratio value for `GEVM`
13.6

Give reported enrichment ratio value for `MGGH`
20.1

Give reported enrichment ratio value for `TIQH`
12.6

These measurements were taken from a collection of fitness landscapes (doi:10.1126/science.1257360).
